Source listed as EPA's ToxValDB 9.5 (doi:10.2903/j.efsa.2016.4569).

Below, each entry is listed alongside its reported LC50.
test system: Tagia sp.; conditions: acute; mortality
parameter-measured: LC50

| compound | result-value |
| --- | --- |
| Cc1nn(-c2cc(CCC(=O)O)c(Cl)cc2F)c(=O)n1C(F)F | > 1000 mg/kg |
| Cc1nn(-c2cc(C(=O)O)c(Cl)cc2F)c(=O)n1C(F)F | > 1000 mg/kg |
| CCOC(=O)C(Cl)Cc1cc(-n2nc(C)n(C(F)F)c2=O)c(F)cc1Cl (configuration not stated) [Carfentrazone-ethyl] | > 410 mg/kg |
| Cc1nn(-c2cc(C=CC(=O)O)c(Cl)cc2F)c(=O)n1C(F)F | > 500 mg/kg |
| Cc1n[nH]c(=O)n1C(F)F | > 100 mg/kg |
| Cc1nn(-c2cc(CC(Cl)C(=O)O)c(Cl)cc2F)c(=O)n1C(F)F (configuration not stated) [Carfentrazone] | > 1000 mg/kg |
| Cc1nn(-c2cc(CC(C(=O)O)S(=O)(=O)O)c(Cl)cc2F)c(=O)n1C(F)F (stereo not drawn) [F8426-alpha-Sulfodeschloropropionic acid] | > 100 mg/kg |
